Assay: PK in rat
Set-up: species or system SD rat
Conditions: Sprague-Dawley, rat, in vivo, po, 10 mg/kg, SD rat, PO 10 mg/kg
VALUE KIND: half-life (min)

# COMPOUND, ASSAY RESULT
measured = [
    ("[2H]C([2H])C([2H])([2H])C(C)(C)C(=O)N(O)Cc1ccccc1", 37),
]

[A] [2H]CC([2H])C(C)(C)C(=O)N(O)Cc1ccccc1 (stereo not shown)
[B] CCC(C)(C)C(=O)N(O)Cc1ccccc1 [Compound 92, reference compound]
[C] CCC(C)(C)C(=O)N(O)Cc1ccc(Cl)cc1
Data request: Arrange items by their half-life values in increasing order. Field: ranking. Enter the labels in the order requested.
Data returned: B, A, C

---

Assay: PK in dog
Settings: in vivo, IV 3 mg/kg, read-out: Vdss
VALUE KIND: Vd (L/kg)
Write the number in L/kg without appending the unit.

Form field Vd, entry CCC(C)(C)C(=O)N(O)Cc1ccccc1 [Compound 92, reference compound] : 1.24

---

Tested on: necrosis
Test: Necrosis inhibitory activity (cell necrosis / cell viability assay)
Assay type: cell-based
Conditions: Necrosis Inhibitory Activity, given as range; read-out: EC50
VALUE KIND: EC50

# COMPOUND, EC50
rows = [
    ("CC(C)(C(=O)N(O)Cc1ccccc1)C(F)F [Compound 74]", "1 to 1000 nM"),
]

Form field EC50, entry CCC(C)(C)C(=O)N(O)Cc1cc(F)cc(F)c1 [Compound 13] : 1 to 1000 nM

Form field EC50, entry CC1(C(=O)N(O)Cc2ccccc2)CCCCC1 [Compound 36] : 1 to 1000 nM

Form field EC50, entry [2H]CC([2H])C(C)(C)C(=O)N(O)Cc1cc(F)cc(F)c1 (centres unmarked) [Compound 26] : 1 to 1000 nM

Form field EC50, entry CC(C)(C(=O)N(O)Cc1cc(F)cc(F)c1)C(F)(F)F [Compound 45] : 1 to 1000 nM

Form field EC50, entry CC(C)(C(=O)N(O)Cc1cc(F)cc(F)c1)C(F)F [Compound 75] : 1 to 1000 nM

Form field EC50, entry CCC1(C(=O)N(O)Cc2ccccc2)CC1 [Compound 38] : 1000 to 10000 nM

Form field EC50, entry [2H]CC([2H])C(C)(C)C(=O)N(O)Cc1ccccc1 (centres unmarked) [Compound 27] : 1 to 1000 nM

Form field EC50, entry CC(C)(C(=O)N(O)Cc1ccc(F)cc1)C(F)(F)F [Compound 43] : 1 to 1000 nM

---

Assay: PK in dog
Conditions: in vivo, PO 150 mg/kg
VALUE KIND: bioavailability (%)
Write the number in % without appending the unit.

Form field bioavailability, entry CCC(C)(C)C(=O)N(O)Cc1cc(F)cc(F)c1 [Compound 13] : 5.33

---

Test: PK in dog
Settings: in vivo, PO 60 mg/kg
VALUE KIND: AUC(0-inf) (ng·h/mL)
Write the number in ng·h/mL without appending the unit.

Form field AUC(0-inf), entry CCC(C)(C)C(=O)N(O)Cc1cc(F)cc(F)c1 : 2050

---

Experiment: PK in dog
Details: in vivo, IV 3 mg/kg
VALUE KIND: clearance (mL/min/kg)
Write the number in mL/min/kg without appending the unit.

Form field clearance, entry CCC(C)(C)C(=O)N(O)Cc1ccccc1 [Compound 92, reference compound] : 25.6

---

Assay: PK in mouse
Details: in vivo, PO 40 mg/kg
VALUE KIND: half-life (min)
Write the number in min without appending the unit.

Form field half-life, entry CCC(C)(C)C(=O)N(O)Cc1cc(F)cc(F)c1 [Compound 13] : 49.8

---

Test: Liver microsome stability, mouse
Type: in vitro ADME
Conditions: liver microsomes, liver microsome stability, read-out: Mouse T1/2
VALUE KIND: half-life (min)

Below, 5 compounds whose answers are already recorded.
# COMPOUND, UNIT ANNOTATION, half-life
records = [
    ("[2H]CC([2H])C(C)(C)C(=O)N(O)Cc1cc(F)cc(F)c1 (stereo not shown) [Compound 26]", "min", 21.1),
    ("C=CC(C)(C)C(=O)N(O)Cc1ccccc1 [Compound 19]", "min", 25.4),
    ("CCC(C)(C)C(=O)N(O)Cc1ccccc1 [Compound 92, reference compound]", "min", 32.5),
    ("[2H]CC([2H])C(C)(C)C(=O)N(O)Cc1ccccc1 (stereo not shown) [Compound 27]", "min", 26.5),
    ("CCC(C)(C)C(=O)N(O)Cc1cc(F)cc(F)c1 [Compound 13]", "min", 17.1),
]

[a] [2H]C([2H])C([2H])([2H])C(C)(C)C(=O)N(O)Cc1ccccc1 [Compound 28]
[b] CCC(C)(C)C(=O)N(O)Cc1ccc(Cl)cc1 [Compound 15]
Data request: Choose between a and b : whose measured half-life value is numerically larger? Mark your answer with the label of the selected entry.
Data returned: a
(a: 33.6 min, b: 16.6 min)

---

Experiment: PK in monkey
Details: in vivo, IV 2 mg/kg, read-out: Vdss
Here, each record is paired with measured Vd data.
Write the number in L/kg without appending the unit.

# MOLECULE, Vd, L/kg
data = [
    ("CCC(C)(C)C(=O)N(O)Cc1ccccc1 [Compound 92, reference compound]", 0.86),
]

For the next question, use this molecule.
Form field Vd, entry CCC(C)(C)C(=O)N(O)Cc1cc(F)cc(F)c1 [Compound 13] : 0.93

---

Assay: Liver microsome stability, dog
Type: in vitro ADME
Conditions: dog, liver microsomes, comparison table with WO2016/101885 compounds; read-out: Dog Liver Microsome T1/2
Here, each record is paired with measured half-life data.
Write the number in min without appending the unit.

# MOLECULE, ASSAY RESULT
records = [
    ("CCC(C)(C)C(=O)N(O)Cc1cc(F)cc(F)c1 [Compound 13]", 2),
]

For the next question, use this molecule.
Form field half-life, entry CCC(C)(C)C(=O)N(O)Cc1ccccc1 [Compound 92, reference compound] : 7

---

Test: Liver microsome stability, monkey
Format: in vitro ADME
Conditions: monkey, liver microsomes, liver microsome stability; read-out: Monkey T1/2
VALUE KIND: half-life (min)

[1] C=CC(C)(C)C(=O)N(O)Cc1ccccc1
[2] CCC(C)(C)C(=O)N(O)Cc1ccccc1 [Compound 92, reference compound]
Data request: Returns the identifier with the smallest measured half-life among 1 and 2 . Mark your answer with the label of the selected entry.
Data returned: 1

---

Experiment: Hepatocyte stability, mouse
Format: in vitro ADME
Set-up: key: +, Extrapolated
Details: Hepatocyte stability, extrapolated
VALUE KIND: Mouse T1/2 (min)

# COMPOUND, VALUE KIND, ASSAY RESULT
records = [
    ("C=CC(C)(C)C(=O)N(O)Cc1ccccc1", "Mouse T1/2 (min)", "+"),
    ("CCC(C)(C)C(=O)N(O)Cc1ccc(Cl)cc1", "Mouse T1/2 (min)", "+"),
    ("[2H]CC([2H])C(C)(C)C(=O)N(O)Cc1ccccc1 (stereo not shown)", "Mouse T1/2 (min)", "+"),
    ("[2H]C([2H])C([2H])([2H])C(C)(C)C(=O)N(O)Cc1ccccc1", "Mouse T1/2 (min)", "+"),
]

---

Experiment: PK in mouse
Details: in vivo, PO 40 mg/kg
VALUE KIND: Cmax (ng/mL)
Write the number in ng/mL without appending the unit.

Form field Cmax, entry CCC(C)(C)C(=O)N(O)Cc1cc(F)cc(F)c1 [Compound 13] : 5420

---

Assay: PK in monkey
Conditions: in vivo, PO 30 mg/kg
VALUE KIND: half-life (h)
Write the number in h without appending the unit.

Form field half-life, entry CCC(C)(C)C(=O)N(O)Cc1cc(F)cc(F)c1 [Compound 13] : 1.5

---

Test: PK in monkey
Settings: in vivo, PO 10 mg/kg
VALUE KIND: Cmax (ng/mL)
Write the number in ng/mL without appending the unit.

Form field Cmax, entry CCC(C)(C)C(=O)N(O)Cc1ccccc1 [Compound 92, reference compound] : 185

---

Test: PK in rat
Parameters: species or system SD rat
Conditions: Sprague-Dawley, rat, in vivo, po, 20 mg/kg, PO 20 mg/kg
VALUE KIND: bioavailability (%)
Write the number in % without appending the unit.

Form field bioavailability, entry CCC(C)(C)C(=O)N(O)Cc1cc(F)cc(F)c1 : 39.4

---

Assay: PK in rat
Design: species or system SD rat
Settings: Sprague-Dawley, in vivo; Rat, PO 20 mg/kg
VALUE KIND: Cmax (ng/mL)
Write the number in ng/mL without appending the unit.

Form field Cmax, entry CCC(C)(C)C(=O)N(O)Cc1cc(F)cc(F)c1 : 1570

---

Experiment: Hepatocyte stability, mini-pig
Format: in vitro ADME
Conditions: minipig, hepatocytes, read-out: mini-pig T1/2
VALUE KIND: half-life (min)
Write the number in min without appending the unit.

# COMPOUND, half-life [min]
data = [
    ("CCC(C)(C)C(=O)N(O)Cc1cc(F)cc(F)c1", 21.2),
]

Form field half-life, entry CCC(C)(C)C(=O)N(O)Cc1ccccc1 [Compound 92, reference compound] : 23.1
